- Target Under Test: Cytochrome P450 2C19 (Homo sapiens, UniProt P33261)
- Sequence (P33261 whole entry): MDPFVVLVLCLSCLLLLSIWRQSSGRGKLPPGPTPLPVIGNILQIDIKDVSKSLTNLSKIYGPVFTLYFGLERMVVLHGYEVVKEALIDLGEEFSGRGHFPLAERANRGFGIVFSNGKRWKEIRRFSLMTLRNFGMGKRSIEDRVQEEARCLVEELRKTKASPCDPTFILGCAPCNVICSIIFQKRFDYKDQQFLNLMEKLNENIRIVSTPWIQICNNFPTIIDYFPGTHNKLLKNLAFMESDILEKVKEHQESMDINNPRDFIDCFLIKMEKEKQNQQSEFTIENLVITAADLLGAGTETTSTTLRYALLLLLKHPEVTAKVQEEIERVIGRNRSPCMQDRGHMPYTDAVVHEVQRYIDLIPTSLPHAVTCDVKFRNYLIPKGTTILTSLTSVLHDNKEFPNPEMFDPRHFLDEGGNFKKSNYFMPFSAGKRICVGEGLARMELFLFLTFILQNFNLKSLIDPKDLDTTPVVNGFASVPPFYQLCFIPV
- Experiment: Inhibition of human recombinant CYP2C19 incubated for 15 mins prior to substrate addition measured after 30 mins by spectrophotometry
Readout Kind: IC50 (nM)

[
  {
    "Entry Smiles": "CCCCC(=O)N(Cc1ccc2c(c1)OCCO2)c1cccc(-c2nnn[nH]2)c1",
    "IC50 [nM]": 680
  }
]

[a] CS(=O)(=O)c1ccc(CN(C(=O)Cc2ccccc2)c2cc(F)cc(-c3nnn[nH]3)c2)cc1
[b] CS(=O)(=O)c1ccc(CN(C(=O)C2CCCC2)c2cc(F)cc(-c3nnn[nH]3)c2)cc1
[c] CCC(=O)N(Cc1ccc(C(F)(F)F)cc1)c1cc(F)cc(-c2nnn[nH]2)c1
Q: Could you please sort these 3 entries by IC50 from high to low? When ranking, write the labels in the order the request describes.
Ans: b, a, c

Data credit: ChEMBL document CHEMBL2034935
